tested on: Klebsiella aerogenes DSM 30053; test: fold change of Cadaverine concentration vs plate DMSO controls (fold change (ratio)); higher = more amine produced, active = hit call of the paper (significant change in both replicates, either direction); details: incubation time: 27 h, anaerobic, 37 °C
Counter-ions that a name gives are not always drawn.
Reported fold change of Cadaverine concentration values for a set of molecules
Could you keep your reply to the number by itself?

In the examples that follow, each entry is paired with its recorded fold change of Cadaverine concentration.
[
  {
    "molecule": "CN(C)[C@@H]1C(=O)C(C(N)=O)=C(O)[C@@]2(O)C(=O)C3=C(O)c4c(O)ccc(Cl)c4[C@@H](O)[C@H]3C[C@@H]12 [Demeclocycline hydrochloride] (20 µM)",
    "fold change of Cadaverine concentration": 0.547
  },
  {
    "molecule": "CCN(CC)C(C)CN1c2ccccc2Sc2ccccc21 (configuration not stated) [Ethopropazine hydrochloride] (20 µM)",
    "fold change of Cadaverine concentration": 0.992
  }
]

Consider now this further molecule.
Task: Give the value of fold change of Cadaverine concentration reported for the following: CCN1CC(CCN2CCOCC2)C(c2ccccc2)(c2ccccc2)C1=O (configuration not stated) [Doxapram hydrochloride] (20 µM)
Result: 1.02

Source listed as the supplement of paper PMC12494721.
